ASSAYED SYSTEM: porcine liver carboxylesterase (CES, EC 3.1.1.1) (Sus scrofa, UniProt Q29550)
Sequence (Q29550 19-566): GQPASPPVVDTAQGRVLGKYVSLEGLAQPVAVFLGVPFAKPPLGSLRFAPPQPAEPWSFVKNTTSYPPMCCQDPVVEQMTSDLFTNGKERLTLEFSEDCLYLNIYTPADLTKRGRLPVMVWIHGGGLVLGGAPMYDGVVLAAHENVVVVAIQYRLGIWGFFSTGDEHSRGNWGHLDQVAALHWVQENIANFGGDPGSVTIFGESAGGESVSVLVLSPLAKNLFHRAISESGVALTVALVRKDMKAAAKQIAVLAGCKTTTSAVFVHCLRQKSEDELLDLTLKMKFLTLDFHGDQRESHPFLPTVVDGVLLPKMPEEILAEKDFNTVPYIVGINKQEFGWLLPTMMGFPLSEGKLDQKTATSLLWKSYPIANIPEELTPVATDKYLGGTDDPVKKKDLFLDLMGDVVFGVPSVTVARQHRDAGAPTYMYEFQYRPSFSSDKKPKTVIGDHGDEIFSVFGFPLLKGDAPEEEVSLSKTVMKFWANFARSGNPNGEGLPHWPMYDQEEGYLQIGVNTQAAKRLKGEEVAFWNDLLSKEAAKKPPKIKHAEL
PROCEDURE DETAILS: Inhibition of porcine liver carboxylesterase (4-NPA colorimetric assay)
Assay type: biochemical
MEASUREMENT PARAMETERS: 20 µM; n.a. = inactive at 20 µM; mean ± SEM, n = 3
Each item that follows carries a reported inhibition at 20 µM.
MEASUREMENT KIND: inhibition at 20 µM (%)

SMILES INPUT: O=C1/C(=N\Nc2ccc(Br)cc2)C(C(F)(F)F)=NN1c1ccccc1
ASSAYED SYSTEM: porcine liver carboxylesterase (CES, EC 3.1.1.1) (Sus scrofa, UniProt Q29550)
MEASUREMENT KIND: inhibition at 20 µM
REPORTED VALUE: 23.2
--
SMILES INPUT: Cc1ccc(N/N=C2\C(=O)N(c3ccccc3)N=C2C(F)(F)C(F)(F)C(F)(F)C(F)(F)F)cc1
ASSAYED SYSTEM: porcine liver carboxylesterase (CES, EC 3.1.1.1) (Sus scrofa, UniProt Q29550)
MEASUREMENT KIND: inhibition at 20 µM
REPORTED VALUE: 12.1
--
SMILES INPUT: O=C1/C(=N\Nc2ccccc2Cl)C(C(F)(F)F)=NN1c1ccccc1
ASSAYED SYSTEM: porcine liver carboxylesterase (CES, EC 3.1.1.1) (Sus scrofa, UniProt Q29550)
MEASUREMENT KIND: inhibition at 20 µM
REPORTED VALUE: 23.2
--
SMILES INPUT: Cc1ccc(N/N=C2\C(=O)N(c3ccc(S(N)(=O)=O)cc3)N=C2C(F)(F)F)cc1
ASSAYED SYSTEM: porcine liver carboxylesterase (CES, EC 3.1.1.1) (Sus scrofa, UniProt Q29550)
MEASUREMENT KIND: inhibition at 20 µM
REPORTED VALUE: 5.7
--
SMILES INPUT: O=C1/C(=N\Nc2ccc(S(=O)(=O)O)cc2)C(C(F)(F)F)=NN1c1ccccc1
ASSAYED SYSTEM: porcine liver carboxylesterase (CES, EC 3.1.1.1) (Sus scrofa, UniProt Q29550)
MEASUREMENT KIND: inhibition at 20 µM
REPORTED VALUE: 5.2
